Consider the following compounds and their measured IC50 readings.
- Test System: hPAD4 (Homo sapiens, UniProt Q9UM07)
- Sequence (Q9UM07 whole entry): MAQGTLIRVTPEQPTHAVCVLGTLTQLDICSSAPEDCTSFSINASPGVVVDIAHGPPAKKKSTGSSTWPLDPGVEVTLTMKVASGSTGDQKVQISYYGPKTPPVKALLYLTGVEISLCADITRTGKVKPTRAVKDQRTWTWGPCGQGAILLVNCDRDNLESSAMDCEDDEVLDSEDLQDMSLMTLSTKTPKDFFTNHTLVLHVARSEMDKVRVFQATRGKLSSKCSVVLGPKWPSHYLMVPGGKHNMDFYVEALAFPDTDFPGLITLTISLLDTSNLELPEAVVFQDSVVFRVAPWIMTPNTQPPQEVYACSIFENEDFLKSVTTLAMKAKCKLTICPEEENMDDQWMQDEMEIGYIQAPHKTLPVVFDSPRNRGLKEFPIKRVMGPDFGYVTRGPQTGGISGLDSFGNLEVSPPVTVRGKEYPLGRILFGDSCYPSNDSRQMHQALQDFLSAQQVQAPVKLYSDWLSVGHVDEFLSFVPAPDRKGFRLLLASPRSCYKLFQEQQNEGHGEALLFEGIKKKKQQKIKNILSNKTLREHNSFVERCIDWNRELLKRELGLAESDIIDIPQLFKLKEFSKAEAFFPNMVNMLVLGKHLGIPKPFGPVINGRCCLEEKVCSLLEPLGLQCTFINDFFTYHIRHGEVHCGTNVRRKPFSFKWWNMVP
- Procedure Summary: hPAD4 RFMS (RapidFire mass spectrometry) PAD4 inhibition assay
- Type: biochemical
- Condition: hPAD4 enzyme, RFMS readout; read-out: hPAD4 RFMS IC50

Compound: COCCn1c(-c2nc3cc(C(=O)N4C[C@H](N)CC[C@@H]4C)cc(OC)c3n2C)cc2cccnc21 (racemic) [Compound I-170]
IC50: 1000 to 5000 nM

Compound: Cn1c(-c2cc3cccnc3n2CC2CC2)nc2cc(C(=O)N3C[C@H](N)C[C@@H](F)C3)cc(OC(F)F)c21
IC50: < 1000 nM

Compound: COc1cc(C(=O)N2C[C@H]3CCC2[C@H]3N)cc2nc(-c3cc4cc(/C=C/CCc5ccccc5)ccc4n3CC3CC3)n(C)c12
IC50: < 1000 nM

Compound: COc1cc(C(=O)N2CCC[C@@H](N)C2)cc2nc(-c3cc4ccc(C)nc4n3CC3CC3)n(C)c12
IC50: < 1000 nM
